Recorded measurements of Hill coefficient, one per entry
Target: Delta-type opioid receptor (Rattus norvegicus)
Assay: Hill coefficient value was measured against delta sites in rat brain homogenates
Type: tissue-based
Just the number, please.

Consider the reported Hill coefficient for these compounds:
// query Return the recorded Hill coefficient value; entry: CC(C)C[C@H](NC(=O)[C@H](Cc1ccccc1)NC(=O)[C@@H](Cc1c[nH]c2ccccc12)NC(=O)CNC(=O)[C@@H](N)Cc1ccc(O)cc1)C(=O)N[C@@H](CCCN=C(N)N)C(=O)N[C@@H](CCCN=C(N)N)C(=O)N[C@H](Cc1c[nH]c2ccccc12)C(=O)N[C@@H](CCCN=C(N)N)C(=O)N1CCC[C@@H]1C(=O)N[C@@H](CCCCN)C(=O)O
// result 1.07

// query Return the recorded Hill coefficient value; entry: CC(C)C[C@H](NC(=O)[C@H](Cc1ccccc1)NC(=O)CNC(=O)[C@@H](Cc1c[nH]c2ccccc12)NC(=O)[C@@H](N)Cc1ccc(O)cc1)C(=O)N[C@@H](CCCN=C(N)N)C(=O)N[C@@H](CCCN=C(N)N)C(=O)N[C@H](Cc1c[nH]c2ccccc12)C(=O)N[C@@H](CCCN=C(N)N)C(=O)N1CCC[C@@H]1C(=O)N[C@@H](CCCCN)C(=O)O
// result 0.72

***
// query Return the recorded Hill coefficient value; entry: CC(C)C[C@H](NC(=O)[C@@H](Cc1c[nH]c2ccccc12)NC(=O)CNC(=O)[C@@H](Cc1c[nH]c2ccccc12)NC(=O)[C@@H](N)Cc1ccc(O)cc1)C(=O)N[C@@H](CCCN=C(N)N)C(=O)N[C@@H](CCCN=C(N)N)C(=O)N[C@H](Cc1c[nH]c2ccccc12)C(=O)N[C@@H](CCCN=C(N)N)C(=O)N1CCC[C@@H]1C(=O)N[C@@H](CCCCN)C(=O)O
// result 0.86

====

Recorded measurements of pIC50, one per entry
Biological target: Kappa-type opioid receptor (Homo sapiens)
Sequence (P41145 whole entry): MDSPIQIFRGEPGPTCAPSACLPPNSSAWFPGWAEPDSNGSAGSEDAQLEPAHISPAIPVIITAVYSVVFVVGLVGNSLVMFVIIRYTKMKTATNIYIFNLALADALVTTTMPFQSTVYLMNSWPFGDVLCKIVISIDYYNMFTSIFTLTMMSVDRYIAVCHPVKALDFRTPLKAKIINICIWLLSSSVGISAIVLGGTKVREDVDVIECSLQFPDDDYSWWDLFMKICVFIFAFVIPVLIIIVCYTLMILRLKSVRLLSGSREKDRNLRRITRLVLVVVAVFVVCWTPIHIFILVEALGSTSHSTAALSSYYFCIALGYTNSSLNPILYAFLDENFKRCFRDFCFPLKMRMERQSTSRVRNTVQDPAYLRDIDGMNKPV
Assay: Compound was evaluated for the agonistic activity against Opioid receptor kappa 1 in rabbit vas deferens.
Conditions: target entry is the homologue from another species
pIC50: −log10 of the molar value.

// query Return the recorded pIC50 value; entry: NCCCC[C@H](NC(=O)[C@H]1CCCN1C(=O)[C@H](CCCN=C(N)N)NC(=O)[C@@H](Cc1c[nH]c2ccccc12)NC(=O)[C@H](CCCN=C(N)N)NC(=O)[C@H](CCCN=C(N)N)NC(=O)[C@@H](Cc1c[nH]c2ccccc12)NC(=O)[C@H](Cc1ccccc1)NC(=O)CNC(=O)CNC(=O)[C@@H](N)Cc1ccc(O)cc1)C(=O)O
// result < 5.00

// query Return the recorded pIC50 value; entry: CC[C@H](C)[C@H](NC(=O)[C@H](CCCNC(=N)N)NC(=O)[C@H](CCCNC(=N)N)NC(=O)[C@H](CC(C)C)NC(=O)[C@H](Cc1ccccc1)NC(=O)CNC(=O)CNC(=O)[C@@H](N)Cc1ccc(O)cc1)C(=O)N[C@@H](CCCNC(=N)N)C(=O)N1CCC[C@H]1C(=O)N[C@@H](CCCCN)C(=O)O [DYNORPHIN A (1-11)]
// result 7.88

// query Return the recorded pIC50 value; entry: CC(C)C[C@H](NC(=O)[C@H](Cc1ccccc1)NC(=O)CNC(=O)[C@@H](Cc1c[nH]c2ccccc12)NC(=O)[C@@H](N)Cc1ccc(O)cc1)C(=O)N[C@@H](CCCN=C(N)N)C(=O)N[C@@H](CCCN=C(N)N)C(=O)N[C@H](Cc1c[nH]c2ccccc12)C(=O)N[C@@H](CCCN=C(N)N)C(=O)N1CCC[C@@H]1C(=O)N[C@@H](CCCCN)C(=O)O
// result < 5.00

====

Target: Mu-type opioid receptor (Rattus norvegicus, UniProt P33535)
Recorded measurements of pKi, one per entry
pKi is defined as minus the log10 of a concentration measured in mol/L.

// query Consider the molecule CC(C)C[C@H](NC(=O)[C@@H](Cc1c[nH]c2ccccc12)NC(=O)CNC(=O)CNC(=O)[C@@H](N)Cc1ccc(O)cc1)C(=O)N[C@@H](CCCN=C(N)N)C(=O)N[C@@H](CCCN=C(N)N)C(=O)N[C@H](Cc1c[nH]c2ccccc12)C(=O)N[C@@H](CCCN=C(N)N)C(=O)N1CCC[C@@H]1C(=O)N[C@@H](CCCCN)C(=O)O tested on Mu-type opioid receptor (Rattus norvegicus, UniProt P33535); state its pKi.
// result 6.85

// query Consider the molecule CC(C)C[C@H](NC(=O)[C@@H](Cc1c[nH]c2ccccc12)NC(=O)CNC(=O)[C@@H](Cc1c[nH]c2ccccc12)NC(=O)[C@@H](N)Cc1ccc(O)cc1)C(=O)N[C@@H](CCCN=C(N)N)C(=O)N[C@@H](CCCN=C(N)N)C(=O)N[C@H](Cc1c[nH]c2ccccc12)C(=O)N[C@@H](CCCN=C(N)N)C(=O)N1CCC[C@@H]1C(=O)N[C@@H](CCCCN)C(=O)O tested on Mu-type opioid receptor (Rattus norvegicus, UniProt P33535); state its pKi.
// result 7.29

***
// query Consider the molecule NCCCC[C@H](NC(=O)[C@H]1CCCN1C(=O)[C@H](CCCN=C(N)N)NC(=O)[C@@H](Cc1c[nH]c2ccccc12)NC(=O)[C@H](CCCN=C(N)N)NC(=O)[C@H](CCCN=C(N)N)NC(=O)[C@@H](Cc1c[nH]c2ccccc12)NC(=O)[C@H](Cc1ccccc1)NC(=O)CNC(=O)CNC(=O)[C@@H](N)Cc1ccc(O)cc1)C(=O)O tested on Mu-type opioid receptor (Rattus norvegicus, UniProt P33535); state its pKi.
// result 7.69

====

Molecular target: Mu-type opioid receptor (Rattus norvegicus) (UniProt P33535)
Sequence (P33535 whole entry): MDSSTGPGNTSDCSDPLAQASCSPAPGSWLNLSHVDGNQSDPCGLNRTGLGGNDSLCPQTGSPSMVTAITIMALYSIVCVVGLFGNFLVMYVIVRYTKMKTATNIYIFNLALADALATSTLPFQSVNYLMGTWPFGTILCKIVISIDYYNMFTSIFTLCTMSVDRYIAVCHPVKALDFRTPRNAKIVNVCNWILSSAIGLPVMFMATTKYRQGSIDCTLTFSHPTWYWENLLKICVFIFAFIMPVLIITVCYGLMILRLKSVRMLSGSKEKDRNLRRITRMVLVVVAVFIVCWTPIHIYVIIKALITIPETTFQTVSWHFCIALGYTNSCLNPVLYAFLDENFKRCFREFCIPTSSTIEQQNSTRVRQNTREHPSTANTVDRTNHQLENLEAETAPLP
Assay: Hill coefficient value was measured against mu sites in rat brain homogenates
Format: tissue-based
# Hill coefficient >= 1 gives label 1, anything below gives label 0

// query Is reported Hill coefficient greater than or equal to 1 here: CC(C)C[C@H](NC(=O)[C@@H](Cc1c[nH]c2ccccc12)NC(=O)CNC(=O)CNC(=O)[C@@H](N)Cc1ccc(O)cc1)C(=O)N[C@@H](CCCN=C(N)N)C(=O)N[C@@H](CCCN=C(N)N)C(=O)N[C@H](Cc1c[nH]c2ccccc12)C(=O)N[C@@H](CCCN=C(N)N)C(=O)N1CCC[C@@H]1C(=O)N[C@@H](CCCCN)C(=O)O
// result label 1

// query Is reported Hill coefficient greater than or equal to 1 here: CC(C)C[C@H](NC(=O)[C@H](Cc1ccccc1)NC(=O)[C@@H](Cc1c[nH]c2ccccc12)NC(=O)CNC(=O)[C@@H](N)Cc1ccc(O)cc1)C(=O)N[C@@H](CCCN=C(N)N)C(=O)N[C@@H](CCCN=C(N)N)C(=O)N[C@H](Cc1c[nH]c2ccccc12)C(=O)N[C@@H](CCCN=C(N)N)C(=O)N1CCC[C@@H]1C(=O)N[C@@H](CCCCN)C(=O)O
// result label 1

// query Is reported Hill coefficient greater than or equal to 1 here: CC(C)C[C@H](NC(=O)[C@H](Cc1ccccc1)NC(=O)CNC(=O)CNC(=O)[C@@H](N)Cc1ccc(O)cc1)C(=O)N[C@@H](CCCN=C(N)N)C(=O)N[C@@H](CCCN=C(N)N)C(=O)N[C@H](Cc1c[nH]c2ccccc12)C(=O)N[C@@H](CCCN=C(N)N)C(=O)N1CCC[C@@H]1C(=O)N[C@@H](CCCCN)C(=O)O
// result label 0

// query Is reported Hill coefficient greater than or equal to 1 here: NCCCC[C@H](NC(=O)[C@H]1CCCN1C(=O)[C@H](CCCN=C(N)N)NC(=O)[C@@H](Cc1c[nH]c2ccccc12)NC(=O)[C@H](CCCN=C(N)N)NC(=O)[C@H](CCCN=C(N)N)NC(=O)[C@@H](Cc1c[nH]c2ccccc12)NC(=O)[C@H](Cc1ccccc1)NC(=O)CNC(=O)CNC(=O)[C@@H](N)Cc1ccc(O)cc1)C(=O)O
// result label 1

***
// query Is reported Hill coefficient greater than or equal to 1 here: CC(C)C[C@H](NC(=O)[C@@H](Cc1c[nH]c2ccccc12)NC(=O)CNC(=O)[C@@H](Cc1c[nH]c2ccccc12)NC(=O)[C@@H](N)Cc1ccc(O)cc1)C(=O)N[C@@H](CCCN=C(N)N)C(=O)N[C@@H](CCCN=C(N)N)C(=O)N[C@H](Cc1c[nH]c2ccccc12)C(=O)N[C@@H](CCCN=C(N)N)C(=O)N1CCC[C@@H]1C(=O)N[C@@H](CCCCN)C(=O)O
// result label 0

// query Is reported Hill coefficient greater than or equal to 1 here: CC(C)C[C@H](NC(=O)[C@H](Cc1ccccc1)NC(=O)CNC(=O)[C@@H](Cc1c[nH]c2ccccc12)NC(=O)[C@@H](N)Cc1ccc(O)cc1)C(=O)N[C@@H](CCCN=C(N)N)C(=O)N[C@@H](CCCN=C(N)N)C(=O)N[C@H](Cc1c[nH]c2ccccc12)C(=O)N[C@@H](CCCN=C(N)N)C(=O)N1CCC[C@@H]1C(=O)N[C@@H](CCCCN)C(=O)O
// result label 1
